target desc: HIV-1 protease (Human immunodeficiency virus type 1 group M subtype B, UniProt P04585)
Construct: The protease (or proteinase) enzyme, consisting of only 99 amino acids
measurement notes: In vitro HIV protease inhibitory assay (fluorescently labeled substrate, avidin-polystyrene particles)
Type: biochemical
experimental setup: HIV-1 dose 10.0 μM
metric: inhibition at 10 µM (%)

- compound: "CCC1(CCc2ccccc2)OC(=O)C(C(c2ccccc2)C2CC2)=C1O (stereo not shown) [DX-7]"
  inhibition at 10 µM / %: 112
- compound: "CC(CCc1ccccc1)C1OC(=O)C(C(c2ccccc2)C2CC2)=C1O (stereo not shown) [GX-3]"
  inhibition at 10 µM / %: 84.7
- compound: "CCC1CCCCC12OC(=O)C(C(c1ccccc1)C1CC1)=C2O (stereo not shown) [IX-34]"
  inhibition at 10 µM / %: 98.1
- compound: "O=C1OC(CCCc2ccccc2)(CCc2ccccc2)C(O)=C1C(c1ccccc1)C1CC1 (stereo not shown) [DX-18]"
  inhibition at 10 µM / %: 114

(I) O=C1OC(C(O)C=Cc2ccccc2)C(O)=C1C(c1ccccc1)C1CC1 (stereo not shown) [BX-7]
(II) CCCCC(CC)C1OC(=O)C(C(c2ccccc2)C2CC2)=C1O (stereo not shown) [GX-5]
(III) O=C1OC(CCCc2ccccc2)C(O)=C1C(Cc1ccccc1)c1ccccc1 (stereo not shown) [FX-1]
Request: // sort entries: inhibition at 10 µM, high to low In your reply, arrange the labels in the requested order.
Response: II, III, I
(II: 94.1%, III: 35.4%, I: 18%)

(P) CC1(CCCc2ccccc2)OC(=O)C(C(c2ccccc2)C2CC2)=C1O (stereo not shown) [DX-10]
(Q) O=C1OC2(CCNCC2)C(O)=C1C(c1ccccc1)C1CC1 (stereo not shown) [OX-2]
(R) O=C1OC(CCCc2ccccc2)C(O)=C1C(c1ccccc1)c1ccccc1 (stereo not shown) [FX-2]
Request: Provide the items ranked by increasing inhibition at 10 µM. Provide your answer as the labels ordered per the instruction.
Response: Q, R, P

---

target desc: HIV-1 protease (Human immunodeficiency virus type 1 group M subtype B)
Construct: The protease (or proteinase) enzyme, consisting of only 99 amino acids
measurement notes: In vitro HIV protease inhibitory assay (fluorescently labeled substrate, avidin-polystyrene particles)
Type: biochemical
experimental setup: HIV-1 dose 3.3 μM
metric: inhibition at 3.3 µM (%)

Past entries and their recorded results:
- compound: "CC/C=C1\\OC(=O)C(C(c2ccccc2)C2CC2)=C1O (stereo not shown)"
  metric: "inhibition at 3.3 µM"
  result value: 43.2
- compound: "O=C1OC2(CCCCC2)C(O)=C1C(c1ccccc1)C1CC1 (stereo not shown)"
  metric: "inhibition at 3.3 µM"
  result value: 102
- compound: "CC(C)C1(CCCc2ccccc2)OC(=O)C(C(c2ccccc2)C2CC2)=C1O (stereo not shown)"
  metric: "inhibition at 3.3 µM"
  result value: 103
- compound: "CCCC1(CCC)OC(=O)C(C(c2cccc(NS(=O)(=O)c3cn(C)cn3)c2)C2CCCC2)=C1O (stereo not shown)"
  metric: "inhibition at 3.3 µM"
  result value: 94.5
- compound: "CCCC1(CCCc2ccccc2)OC(=O)C(C(c2ccccc2)C2CC2)=C1O (stereo not shown)"
  metric: "inhibition at 3.3 µM"
  result value: 108

(P) O=C1OC(Cc2ccccc2)(Cc2ccccc2)C(O)=C1C(c1ccccc1)C1CC1 (stereo not shown)
(Q) CCCCC1OC(=O)C(C(c2ccccc2)C2CC2)=C1O (stereo not shown)
Request: Hi, I'm comparing P with Q and wondering which one has the bigger number for inhibition at 3.3 µM. Any idea? // caller expects the label of the chosen entry
Response: P
(P: 103%, Q: 45.1%)

---

target desc: HIV-1 protease (Human immunodeficiency virus type 1 group M subtype B, UniProt P04585)
Construct: The protease (or proteinase) enzyme, consisting of only 99 amino acids
measurement notes: In vitro HIV protease inhibitory assay (fluorescently labeled substrate, avidin-polystyrene particles)
Format: biochemical
experimental setup: HIV-1 dose 10.0 μM
metric: inhibition at 10 µM (%)

- compound: "CCCC1(Cc2ccccc2)OC(=O)C(C(c2cccc(NS(=O)(=O)c3ccc(F)cc3)c2)C(C)C)=C1O (stereo not drawn) [IX-29]"
  target desc: "HIV-1 protease (Human immunodeficiency virus type 1 group M subtype B, UniProt P04585)"
  inhibition at 10 µM, %: 102
- compound: "O=C1OC(Cc2ccccc2)C(O)=C1C(c1ccccc1)C1CC1 (stereo not drawn) [BX-1]"
  target desc: "HIV-1 protease (Human immunodeficiency virus type 1 group M subtype B, UniProt P04585)"
  inhibition at 10 µM, %: 80.1
- compound: "CCCC1(CCC)OC(=O)C(C(c2cccc(NS(=O)(=O)c3cn(C)cn3)c2)C(C)(C)C)=C1O (stereo not drawn) [IX-26]"
  target desc: "HIV-1 protease (Human immunodeficiency virus type 1 group M subtype B, UniProt P04585)"
  inhibition at 10 µM, %: 116
- compound: "O=C1OC(=CCCc2ccccc2)C(O)=C1C(c1ccccc1)C1CC1 (stereo not drawn) [JX-1]"
  target desc: "HIV-1 protease (Human immunodeficiency virus type 1 group M subtype B, UniProt P04585)"
  inhibition at 10 µM, %: 103
- compound: "CCCC1(CCC)OC(=O)C(C(c2cccc(NS(=O)(=O)c3cn(C)cn3)c2)C(C)C)=C1O (stereo not drawn) [IX-24]"
  target desc: "HIV-1 protease (Human immunodeficiency virus type 1 group M subtype B, UniProt P04585)"
  inhibition at 10 µM, %: 101
- compound: "CCC(C1=C(O)C(CC)(Cc2ccccc2)OC1=O)c1ccccc1 (stereo not drawn) [IX-10]"
  target desc: "HIV-1 protease (Human immunodeficiency virus type 1 group M subtype B, UniProt P04585)"
  inhibition at 10 µM, %: 105
- compound: "C=CCC1(CCCc2ccccc2)OC(=O)C(C(c2ccccc2)C2CC2)=C1O (stereo not drawn) [DX-16]"
  target desc: "HIV-1 protease (Human immunodeficiency virus type 1 group M subtype B, UniProt P04585)"
  inhibition at 10 µM, %: 115
- compound: "CCCC1(CCC)OC(=O)C(C(c2cccc(NS(=O)(=O)c3ccc(C#N)cc3)c2)C2CCCC2)=C1O (stereo not drawn) [IX-41]"
  target desc: "HIV-1 protease (Human immunodeficiency virus type 1 group M subtype B, UniProt P04585)"
  inhibition at 10 µM, %: 96.9
- compound: "CC(C)(C)C(C1=C(O)C(Cc2ccccc2)(Cc2ccccc2)OC1=O)c1cccc(NS(=O)(=O)c2ccc(C#N)cc2)c1 (stereo not drawn) [IX-54]"
  target desc: "HIV-1 protease (Human immunodeficiency virus type 1 group M subtype B, UniProt P04585)"
  inhibition at 10 µM, %: 105
- compound: "CCCC1(CCC)OC(=O)C(C(CC)c2cccc([N+](=O)[O-])c2)=C1O (stereo not drawn) [IX-2]"
  target desc: "HIV-1 protease (Human immunodeficiency virus type 1 group M subtype B, UniProt P04585)"
  inhibition at 10 µM, %: 113
- compound: "CCC/C=C1\\OC(=O)C(C(c2ccccc2)C2CC2)=C1O (stereo not drawn) [JX-4]"
  target desc: "HIV-1 protease (Human immunodeficiency virus type 1 group M subtype B, UniProt P04585)"
  inhibition at 10 µM, %: 99.2
- compound: "CCCC1(CCC)OC(=O)C(C(c2cccc(NS(=O)(=O)c3ccc(C#N)cc3)c2)C2CC2)=C1O (stereo not drawn) [IX-14]"
  target desc: "HIV-1 protease (Human immunodeficiency virus type 1 group M subtype B, UniProt P04585)"
  inhibition at 10 µM, %: 111
- compound: "CCCC1(CCC)OC(=O)C(C(c2cccc(NS(=O)(=O)c3nnnn3-c3ccccc3)c2)C2CC2)=C1O (stereo not drawn) [IX-50]"
  target desc: "HIV-1 protease (Human immunodeficiency virus type 1 group M subtype B, UniProt P04585)"
  inhibition at 10 µM, %: 104
- compound: "O=C1OC(CCc2ccccc2)C(O)=C1C(c1ccccc1)C1CC1 (stereo not drawn) [BX-2]"
  target desc: "HIV-1 protease (Human immunodeficiency virus type 1 group M subtype B, UniProt P04585)"
  inhibition at 10 µM, %: 81
- compound: "CCCC1(Cc2ccccc2)OC(=O)C(C(c2ccccc2)C2CC2)=C1O (stereo not drawn) [DX-4]"
  target desc: "HIV-1 protease (Human immunodeficiency virus type 1 group M subtype B, UniProt P04585)"
  inhibition at 10 µM, %: 128
- compound: "O=C1OC(Cc2ccccc2)(Cc2ccccc2)C(O)=C1C(c1ccccc1)C1CC1 (stereo not drawn) [DX-5]"
  target desc: "HIV-1 protease (Human immunodeficiency virus type 1 group M subtype B, UniProt P04585)"
  inhibition at 10 µM, %: 116
- compound: "O=C1OC2(CCCCCCC2)C(O)=C1C(c1ccccc1)C1CC1 (stereo not drawn) [CX-2]"
  target desc: "HIV-1 protease (Human immunodeficiency virus type 1 group M subtype B, UniProt P04585)"
  inhibition at 10 µM, %: 104
- compound: "CCC1(Cc2ccccc2)OC(=O)C(C(c2ccccc2)C(C)C)=C1O (stereo not drawn) [IX-9]"
  target desc: "HIV-1 protease (Human immunodeficiency virus type 1 group M subtype B, UniProt P04585)"
  inhibition at 10 µM, %: 109
- compound: "CC(C)C1OC(=O)C(C(c2ccccc2)C2CC2)=C1O (stereo not drawn) [BX-10]"
  target desc: "HIV-1 protease (Human immunodeficiency virus type 1 group M subtype B, UniProt P04585)"
  inhibition at 10 µM, %: 74.6
- compound: "O=C1OC2(CCCCC2Cc2ccccc2)C(O)=C1C(c1ccccc1)C1CC1 (stereo not drawn) [IX-6]"
  target desc: "HIV-1 protease (Human immunodeficiency virus type 1 group M subtype B, UniProt P04585)"
  inhibition at 10 µM, %: 104
- compound: "CCCC1(CCC)OC(=O)C(C(c2ccccc2)c2cccc(NS(=O)(=O)c3cn(C)cn3)c2)=C1O (stereo not drawn) [IX-48]"
  target desc: "HIV-1 protease (Human immunodeficiency virus type 1 group M subtype B, UniProt P04585)"
  inhibition at 10 µM, %: 94.7
